- Measured On: Heat sensitive channel TRPV3 (Rattus norvegicus)
- Sequence (Q4QYD9 whole entry): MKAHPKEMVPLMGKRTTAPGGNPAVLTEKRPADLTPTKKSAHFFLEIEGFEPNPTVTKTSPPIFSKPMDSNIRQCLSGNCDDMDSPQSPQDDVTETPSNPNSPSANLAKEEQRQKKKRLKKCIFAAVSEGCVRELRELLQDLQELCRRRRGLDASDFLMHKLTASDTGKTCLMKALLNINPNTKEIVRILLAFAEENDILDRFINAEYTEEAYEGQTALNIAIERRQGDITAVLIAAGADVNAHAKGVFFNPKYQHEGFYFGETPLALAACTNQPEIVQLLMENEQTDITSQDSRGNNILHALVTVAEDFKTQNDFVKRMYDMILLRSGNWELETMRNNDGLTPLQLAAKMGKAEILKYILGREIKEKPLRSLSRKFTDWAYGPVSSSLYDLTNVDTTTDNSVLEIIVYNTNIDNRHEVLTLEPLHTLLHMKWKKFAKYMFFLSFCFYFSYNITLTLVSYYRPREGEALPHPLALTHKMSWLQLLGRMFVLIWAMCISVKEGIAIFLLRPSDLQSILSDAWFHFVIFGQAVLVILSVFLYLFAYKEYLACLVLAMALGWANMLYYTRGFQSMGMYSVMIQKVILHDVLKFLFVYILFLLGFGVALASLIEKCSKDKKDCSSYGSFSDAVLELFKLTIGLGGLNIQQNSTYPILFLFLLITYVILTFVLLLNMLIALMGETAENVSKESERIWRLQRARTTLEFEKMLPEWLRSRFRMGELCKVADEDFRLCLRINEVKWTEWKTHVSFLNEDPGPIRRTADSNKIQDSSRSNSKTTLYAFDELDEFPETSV
- Experimental Protocol: Inhibition of YFP-tagged rat TRPV3 expressed in HEK293 cells assessed as reduction in calcium level by fluo-4 dye based fluorescence assay
Endpoint Label: IC50

Reported IC50 (Heat sensitive channel TRPV3 (Rattus norvegicus)) for entry Clc1ccc(Cn2c(CN3CCCC3)nc3ccccc32)cc1 [CLEMIZOLE] is > 20 µM

====

- Measured On: TRPC6
- Experimental Protocol: Agonist activity at TRPC6 expressed in HEK293 cells coexpressing M5 receptor assessed as induction of TRPC6-mediated calcium influx by fluorescence method
Endpoint Label: EC50 (µM)
// return numeric value only (unit: µM, not printed)

Given item CCOC(=O)N1CCC(c2cc(O)n3nc(C)c(-c4ccc(F)cc4)c3n2)CC1 , the value recorded as its EC50 is 4.7

====

molecules and their reported IC50
- Measured On: Short transient receptor potential channel 6 (Mus musculus, UniProt Q61143)
- Sequence (Q61143 whole entry): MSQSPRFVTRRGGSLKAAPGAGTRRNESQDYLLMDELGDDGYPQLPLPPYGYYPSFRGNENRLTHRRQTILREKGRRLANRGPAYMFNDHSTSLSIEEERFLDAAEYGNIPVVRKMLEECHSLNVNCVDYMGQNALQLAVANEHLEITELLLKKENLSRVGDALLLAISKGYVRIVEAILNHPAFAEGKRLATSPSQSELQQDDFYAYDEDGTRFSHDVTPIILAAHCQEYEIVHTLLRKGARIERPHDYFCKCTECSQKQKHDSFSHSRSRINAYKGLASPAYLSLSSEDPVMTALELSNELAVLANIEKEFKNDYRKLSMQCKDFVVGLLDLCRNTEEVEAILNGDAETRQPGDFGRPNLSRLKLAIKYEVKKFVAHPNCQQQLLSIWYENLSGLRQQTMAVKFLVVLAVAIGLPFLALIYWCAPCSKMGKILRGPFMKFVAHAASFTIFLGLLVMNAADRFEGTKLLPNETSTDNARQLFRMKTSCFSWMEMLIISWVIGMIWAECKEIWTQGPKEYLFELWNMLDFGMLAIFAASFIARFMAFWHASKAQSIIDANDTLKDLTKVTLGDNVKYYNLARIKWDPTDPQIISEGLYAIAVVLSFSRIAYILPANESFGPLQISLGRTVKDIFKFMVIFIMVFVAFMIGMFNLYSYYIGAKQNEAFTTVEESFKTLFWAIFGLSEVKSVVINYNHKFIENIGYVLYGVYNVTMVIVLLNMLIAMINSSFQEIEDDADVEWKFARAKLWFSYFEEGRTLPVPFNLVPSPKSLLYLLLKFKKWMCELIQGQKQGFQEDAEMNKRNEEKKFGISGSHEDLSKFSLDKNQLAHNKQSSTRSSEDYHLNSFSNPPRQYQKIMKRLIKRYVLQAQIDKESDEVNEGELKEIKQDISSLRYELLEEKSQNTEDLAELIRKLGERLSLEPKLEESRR
- Experimental Protocol: Inhibition of mouse TRPC6 expressed in HEK293 cells co-expressing M5 receptor assessed as reduction in carbachol-induced membrane potential by FMP-2 dye based assay
- Type: cell-based
The reply should be a number in µM, with the unit left off.

>>> reported_measurement("CC1CCN(c2nc3ccccc3[nH]2)CC1")
63.8
>>> reported_measurement("CCCCNc1nc2ccccc2[nH]1")
59.6

CC1CCN(c2nc3cc(Cl)ccc3[nH]2)CC1 has a reported IC50 of 57.1

====

- Measured On: UniProtKB Q9UBN4
- Sequence (Q9UBN4 whole entry): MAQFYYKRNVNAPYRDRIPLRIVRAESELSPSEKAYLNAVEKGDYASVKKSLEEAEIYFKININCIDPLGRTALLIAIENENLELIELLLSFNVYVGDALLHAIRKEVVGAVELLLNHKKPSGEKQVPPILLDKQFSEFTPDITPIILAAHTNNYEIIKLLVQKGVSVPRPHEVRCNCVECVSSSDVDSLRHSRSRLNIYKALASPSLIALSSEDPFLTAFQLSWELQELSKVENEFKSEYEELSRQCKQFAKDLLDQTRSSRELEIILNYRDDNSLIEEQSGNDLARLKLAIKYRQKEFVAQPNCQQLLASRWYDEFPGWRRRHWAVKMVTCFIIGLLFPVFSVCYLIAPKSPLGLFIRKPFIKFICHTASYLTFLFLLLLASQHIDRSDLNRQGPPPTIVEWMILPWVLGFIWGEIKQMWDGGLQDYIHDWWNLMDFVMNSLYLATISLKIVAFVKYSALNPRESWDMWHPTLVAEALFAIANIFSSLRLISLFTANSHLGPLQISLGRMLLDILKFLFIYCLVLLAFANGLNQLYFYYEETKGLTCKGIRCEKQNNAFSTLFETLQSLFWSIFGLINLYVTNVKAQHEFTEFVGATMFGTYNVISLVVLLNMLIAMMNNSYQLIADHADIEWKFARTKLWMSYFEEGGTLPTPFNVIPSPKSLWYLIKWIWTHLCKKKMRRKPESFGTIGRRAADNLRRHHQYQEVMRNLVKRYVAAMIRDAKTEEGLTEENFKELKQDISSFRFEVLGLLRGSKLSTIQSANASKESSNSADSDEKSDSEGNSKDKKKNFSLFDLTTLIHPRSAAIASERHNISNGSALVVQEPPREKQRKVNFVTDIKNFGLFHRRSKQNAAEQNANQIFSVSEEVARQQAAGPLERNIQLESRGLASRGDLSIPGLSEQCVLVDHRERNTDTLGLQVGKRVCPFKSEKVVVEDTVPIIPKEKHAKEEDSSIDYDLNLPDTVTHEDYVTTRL
- Experimental Protocol: Inhibition of human TRPC4 expressed in HEK293 cells assessed as reduction in sphingosine-1-phosphate-induced current at +100 mV by patch clamp assay
- Assay type: cell-based
Endpoint Label: pIC50
# pIC50 is unitless: minus log10 of the molar concentration; print number only

Recorded pIC50 (molecule Cn1c(=O)n(CCCO)c(=O)c2c1nc(Oc1cccc(OC(F)(F)F)c1)n2Cc1ccc(Cl)cc1 ): 10.52

====

- System: AGS
- Experimental Protocol: Antiproliferative activity against human AGS cells by MTT assay
- Assay type: functional, cell-based
Endpoint Label: IC50 (µM)
// units = µM; emit number, no label

The reported IC50 of the compound CCOC(=O)N1CCC(C)(c2cc(O)n3nc(C)c(-c4ccc(C(F)(F)F)cc4)c3n2)CC1 was 17.1

====

- Experimental Protocol: Drug concentration in C57BL/6 mouse serum at 10 mg/kg, ip after 2 hrs by UPLC method
- Type: ADME, organism-based
- Assay Conditions: read-out: Drug uptake
Endpoint Label: concentration at 2 h (ng/mL)
Please give a number only; it is taken to be in ng/mL.

Reported concentration at 2 h for CCCCNc1nc2ccccc2[nH]1 was 2260

====

- Measured On: Short transient receptor potential channel 4 (Mus musculus)
- Sequence (Q9QUQ5 whole entry): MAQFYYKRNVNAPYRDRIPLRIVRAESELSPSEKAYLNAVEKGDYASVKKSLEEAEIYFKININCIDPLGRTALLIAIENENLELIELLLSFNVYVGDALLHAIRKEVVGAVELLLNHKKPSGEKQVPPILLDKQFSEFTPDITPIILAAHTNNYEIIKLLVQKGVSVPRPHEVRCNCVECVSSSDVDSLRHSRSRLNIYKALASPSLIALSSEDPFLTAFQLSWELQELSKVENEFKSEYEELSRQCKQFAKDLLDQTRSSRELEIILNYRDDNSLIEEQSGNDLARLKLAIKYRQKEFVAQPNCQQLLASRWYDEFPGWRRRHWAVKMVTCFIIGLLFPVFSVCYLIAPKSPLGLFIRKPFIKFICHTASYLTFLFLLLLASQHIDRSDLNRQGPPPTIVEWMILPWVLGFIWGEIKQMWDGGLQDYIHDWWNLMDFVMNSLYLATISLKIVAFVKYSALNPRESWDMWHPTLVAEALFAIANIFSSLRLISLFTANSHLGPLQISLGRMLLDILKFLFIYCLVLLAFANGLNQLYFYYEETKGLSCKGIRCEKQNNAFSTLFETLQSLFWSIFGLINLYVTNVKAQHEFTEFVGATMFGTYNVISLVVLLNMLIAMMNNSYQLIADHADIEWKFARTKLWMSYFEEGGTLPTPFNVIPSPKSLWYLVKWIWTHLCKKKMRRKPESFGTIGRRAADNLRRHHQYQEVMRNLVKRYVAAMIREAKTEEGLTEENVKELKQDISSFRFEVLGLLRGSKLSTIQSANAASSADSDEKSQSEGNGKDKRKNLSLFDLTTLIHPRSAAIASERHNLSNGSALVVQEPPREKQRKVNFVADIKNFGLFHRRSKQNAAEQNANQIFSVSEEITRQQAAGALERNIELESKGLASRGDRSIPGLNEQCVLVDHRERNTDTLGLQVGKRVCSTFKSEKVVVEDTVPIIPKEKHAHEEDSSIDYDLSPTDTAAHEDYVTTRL
- Experimental Protocol: Inhibition of YFP-tagged mouse TRPC4 beta expressed in thapsigargin treated HEK293 cells co-expressing M3 receptor assessed as reduction in carbachol-induced calcium level by fluo-4 dye based fluorescence assay
- Assay type: cell-based
Endpoint Label: pIC50
Here pIC50 is given on a logarithmic scale as minus log10 of the concentration in mol/L.

Note to self: pIC50 recorded for Clc1ccc(Cn2c(CN3CCCC3)nc3ccccc32)cc1 [CLEMIZOLE] was 5.19

====

- Measured On: ORAI1/STIM1 (Rattus norvegicus, UniProt P84903+Q5M848)
- Sequence (P84903 whole entry): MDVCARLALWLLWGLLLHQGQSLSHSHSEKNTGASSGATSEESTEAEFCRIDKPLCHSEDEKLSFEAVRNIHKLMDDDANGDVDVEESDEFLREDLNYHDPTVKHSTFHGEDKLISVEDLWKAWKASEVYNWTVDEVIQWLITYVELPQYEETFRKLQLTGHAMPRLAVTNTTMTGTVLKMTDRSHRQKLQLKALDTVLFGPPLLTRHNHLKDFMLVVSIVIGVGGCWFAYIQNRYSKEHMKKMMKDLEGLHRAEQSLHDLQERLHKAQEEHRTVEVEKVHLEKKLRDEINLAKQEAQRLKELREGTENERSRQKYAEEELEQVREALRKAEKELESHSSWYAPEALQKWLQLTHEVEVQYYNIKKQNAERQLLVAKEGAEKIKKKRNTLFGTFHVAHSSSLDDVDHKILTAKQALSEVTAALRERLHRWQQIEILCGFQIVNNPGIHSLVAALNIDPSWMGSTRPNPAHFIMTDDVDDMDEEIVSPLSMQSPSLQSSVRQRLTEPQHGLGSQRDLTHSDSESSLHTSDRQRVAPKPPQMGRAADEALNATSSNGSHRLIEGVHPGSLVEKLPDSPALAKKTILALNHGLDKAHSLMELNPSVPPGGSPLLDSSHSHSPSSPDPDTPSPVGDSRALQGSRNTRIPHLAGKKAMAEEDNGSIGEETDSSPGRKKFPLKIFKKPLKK
- Sequence (Q5M848 whole entry): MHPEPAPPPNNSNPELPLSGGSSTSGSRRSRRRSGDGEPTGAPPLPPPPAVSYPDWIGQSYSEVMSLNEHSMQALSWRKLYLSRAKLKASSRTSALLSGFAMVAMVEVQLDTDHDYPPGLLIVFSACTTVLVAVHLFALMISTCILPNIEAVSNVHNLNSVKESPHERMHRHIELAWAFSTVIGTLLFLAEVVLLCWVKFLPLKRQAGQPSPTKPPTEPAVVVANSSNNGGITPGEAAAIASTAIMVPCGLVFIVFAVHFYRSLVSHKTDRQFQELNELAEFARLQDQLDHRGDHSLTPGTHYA
- Experimental Protocol: Inhibition of ORAI/STIM1 in thapsigargin treated rat RBL2H3 cells assessed as reduction in store-operated calcium entry after 5 mins by fura-2-AM dye based assay
Listing of recorded pIC50 by entry.
Would you please state pIC50, meaning minus log10 of the concentration in mol/L, as a bare number?

// recorded pIC50 for O=C(Nc1ccc(-n2nc(C(F)(F)F)cc2C(F)(F)F)cc1)c1ccncc1F : 6.31

Reported pIC50 for CCOC(=O)c1cnn(-c2ccc(NC(=O)C(Cl)=C(Cl)Cl)cc2)c1C(F)(F)F was 6.27

pIC50 recorded for this compound, Cc1nnsc1C(=O)Nc1ccc(-n2nc(C(F)(F)F)cc2C(F)(F)F)cc1 , is 6.23

The recorded pIC50 for Cc1ccc(S(=O)(=O)Nc2ccc(-n3nc(C(F)(F)F)cc3C(F)(F)F)cc2)cc1 is 4.88

====

- Measured On: Short transient receptor potential channel 5 (Homo sapiens, UniProt Q9UL62)
- Sequence (Q9UL62 whole entry): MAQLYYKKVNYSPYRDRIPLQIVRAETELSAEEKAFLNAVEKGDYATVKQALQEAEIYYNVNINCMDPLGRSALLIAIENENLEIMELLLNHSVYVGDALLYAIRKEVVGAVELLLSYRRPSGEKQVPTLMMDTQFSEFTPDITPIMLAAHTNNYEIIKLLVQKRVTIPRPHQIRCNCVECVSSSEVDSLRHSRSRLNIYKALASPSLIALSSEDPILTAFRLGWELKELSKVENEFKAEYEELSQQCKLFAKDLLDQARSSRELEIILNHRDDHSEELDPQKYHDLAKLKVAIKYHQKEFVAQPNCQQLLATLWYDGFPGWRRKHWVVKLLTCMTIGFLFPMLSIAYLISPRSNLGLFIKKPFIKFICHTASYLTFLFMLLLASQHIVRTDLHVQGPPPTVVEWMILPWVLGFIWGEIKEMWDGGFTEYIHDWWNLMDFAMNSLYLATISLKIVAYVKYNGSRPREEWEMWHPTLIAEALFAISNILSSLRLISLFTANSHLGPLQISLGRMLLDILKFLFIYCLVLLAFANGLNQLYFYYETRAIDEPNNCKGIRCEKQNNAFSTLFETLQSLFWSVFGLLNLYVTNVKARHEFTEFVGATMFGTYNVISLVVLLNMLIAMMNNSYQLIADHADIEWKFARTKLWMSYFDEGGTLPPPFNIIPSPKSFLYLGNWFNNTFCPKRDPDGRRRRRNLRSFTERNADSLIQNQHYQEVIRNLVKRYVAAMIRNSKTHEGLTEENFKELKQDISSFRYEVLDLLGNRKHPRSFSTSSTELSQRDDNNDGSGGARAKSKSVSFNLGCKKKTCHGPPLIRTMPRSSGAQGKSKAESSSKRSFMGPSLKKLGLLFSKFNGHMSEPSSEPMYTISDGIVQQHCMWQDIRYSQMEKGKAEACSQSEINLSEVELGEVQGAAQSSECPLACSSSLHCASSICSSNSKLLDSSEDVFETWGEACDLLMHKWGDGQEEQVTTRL
- Experimental Protocol: Inhibition of TRPC5 (unknown origin) expressed in HEK293/TREx cells assessed as reduction in intracellular calcium level measured for 3 mins by fluo4 dye-based fluorescence assay
- Assay type: cell-based
pIC50: −log10 of the molar value.
Endpoint Label: pIC50

The cases that follow already have their pIC50 on record.
>>> reported_measurement("O=c1c2c(Cc3ccc(Cl)cc3)c(-c3cccc(Cl)c3)oc2n(CCCO)c(=O)n1CCCO")
"5.77 to 7.68"
>>> reported_measurement("CCCOc1ccc2c(c1Cc1ccc(F)cc1)c(=O)n(CCCO)c(=O)n2C")
"6.40 to 9.00"
>>> reported_measurement("Cc1c(-c2ccc3ccccc3c2)sc2c1c(=O)n(CCCO)c(=O)n2C")
"5.77 to 7.68"
>>> reported_measurement("CC(C)Oc1ccc2c(c1Cc1ccc(F)cc1)c(=O)n(CCCO)c(=O)n2C")
"6.40 to 9.00"
>>> reported_measurement("Cn1c(=O)n(CCCO)c(=O)c2c(C(O)c3ccc(Cl)cc3)c(-c3cccc(Cl)c3)sc21 (stereo not drawn)")
"5.77 to 7.68"

Value of measured pIC50 for the entry Cn1c(=O)n(CCCO)c(=O)c2c(Cc3ccc(Cl)cc3)c(Oc3cccc(OC(F)(F)F)c3)sc21 : 5.77 to 7.68

In plain terms, Cc1c(-c2cccc(OC(F)(F)F)c2)n(Cc2ccc(Cl)cc2)c2c(=O)n(CCCO)c(=O)n(C)c12 has a documented pIC50 of 5.12 to 6.39

For reference, reported pIC50 for Cn1c(=O)n(CCCO)c(=O)c2c(Cc3ccccc3)c(-c3cccc(OC(F)(F)F)c3)ncc21 stands at 5.01 to 6.71

// CC(C)c1ccccc1-c1ncc2c(c1Cc1ccc(Cl)cc1)c(=O)n(CCCO)c(=O)n2C : pIC50 value = 5.01 to 6.71

Entry Cn1c(=O)n(CCCO)c(=O)c2c(Cc3ccccc3)c(-c3cccc(OC(F)(F)F)c3)ccc21 — recorded pIC50 = 6.40 to 9.00

Summary for this molecule, Cc1c(-c2cccc(OC(F)(F)F)c2)[nH]c2c(=O)n(CCCO)c(=O)n(C)c12 : pIC50 is 5.12 to 6.39

Lab note: Cc1c(-c2cccc(Cl)c2Cl)sc2c1c(=O)n(CCCO)c(=O)n2C gave pIC50 of 5.77 to 7.68

The recorded pIC50 for CC(C)c1ccccc1-c1cc2c(=O)n(CCCO)c(=O)n(C)c2cn1 is 5.01 to 6.71

====

Here, each record is paired with measured IC50 data.
- Measured On: Short transient receptor potential channel 3 (Homo sapiens, UniProt Q13507)
- Sequence (Q13507 whole entry): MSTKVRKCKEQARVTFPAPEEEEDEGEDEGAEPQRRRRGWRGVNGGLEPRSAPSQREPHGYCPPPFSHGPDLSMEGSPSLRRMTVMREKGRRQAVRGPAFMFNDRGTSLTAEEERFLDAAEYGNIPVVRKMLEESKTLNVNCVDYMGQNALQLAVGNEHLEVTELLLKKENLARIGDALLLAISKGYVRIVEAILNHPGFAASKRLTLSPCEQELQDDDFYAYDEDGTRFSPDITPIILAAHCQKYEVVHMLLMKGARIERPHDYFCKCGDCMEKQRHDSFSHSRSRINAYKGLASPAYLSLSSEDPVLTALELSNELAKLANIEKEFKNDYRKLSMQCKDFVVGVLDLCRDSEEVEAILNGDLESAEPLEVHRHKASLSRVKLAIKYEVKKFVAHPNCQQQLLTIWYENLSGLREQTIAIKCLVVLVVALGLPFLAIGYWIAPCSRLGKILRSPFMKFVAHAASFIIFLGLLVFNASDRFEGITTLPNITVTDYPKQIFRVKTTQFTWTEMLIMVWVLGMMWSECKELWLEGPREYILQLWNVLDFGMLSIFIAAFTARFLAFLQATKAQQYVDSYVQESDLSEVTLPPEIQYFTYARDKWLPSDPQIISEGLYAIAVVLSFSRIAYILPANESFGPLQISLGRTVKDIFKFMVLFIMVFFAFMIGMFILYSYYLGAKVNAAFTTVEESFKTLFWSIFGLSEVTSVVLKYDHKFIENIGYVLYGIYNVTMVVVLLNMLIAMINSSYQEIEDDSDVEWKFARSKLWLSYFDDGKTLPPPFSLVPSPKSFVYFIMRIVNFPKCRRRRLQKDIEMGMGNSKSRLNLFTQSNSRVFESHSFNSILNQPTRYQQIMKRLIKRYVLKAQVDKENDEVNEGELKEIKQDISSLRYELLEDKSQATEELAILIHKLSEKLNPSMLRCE
- Experimental Protocol: Inhibition of human TRPC3 expressed in HEK293 cells assessed as reduction in carbachol-induced membrane potential by FMP-2 dye based assay
- Format: cell-based
Return type: number; implicit unit µM.

Examples with their reported IC50 follow.
>>> reported_measurement("CCCCNc1nc2ccccc2[nH]1")
48.6
>>> reported_measurement("CC1CCN(c2nc3ccccc3[nH]2)CC1")
19.3

Per the record, CC1CCN(c2nc3cc(Cl)ccc3[nH]2)CC1 has IC50 of 30.4
